System: Rattus norvegicus
assay: Antiallergic activity in egg albumin-sensitized Sprague-Dawley rat assessed as inhibition of passive cutaneous anaphylaxis at 25 to 50 mg/kg, po administered 15 mins prior to egg albumin and Evans blue dye challenge
Type: functional, organism-based
Activity calls are given as the source filed them. The rule behind the calls is not given here.
assay_endpoint: inhibition

COC(=O)c1cc(=O)c2cc(C(=O)c3ccccc3)ccc2[nH]1
inactive
O=C(O)c1cc(=O)c2cc(S(=O)(=O)c3ccccc3)ccc2[nH]1
inactive
COC(=O)c1cc(=O)c2cc([S+]([O-])c3ccccc3)ccc2[nH]1 (stereo not drawn)
inactive
COC(=O)c1cc(=O)c2ccc(S(=O)(=O)c3ccccc3)cc2[nH]1
inactive

# input compound: O=C(O)c1cc(=O)c2ccc3c(c2[nH]1)C(=O)c1ccccc1-3 ; wanted: its inhibition
inactive

Now the same for COC(=O)c1cc(=O)c2ccc(Sc3ccccc3)cc2[nH]1
inactive

---

System: Rattus norvegicus
assay: Antiallergic activity in egg albumin-sensitized Sprague-Dawley rat assessed as inhibition of passive cutaneous anaphylaxis at 25 to 50 mg/kg, po administered 15 mins prior to egg albumin and Evans blue dye challenge
Type: functional, organism-based
The source made the active and inactive calls. The rule behind the calls is not given here.
assay_endpoint: inhibition

A selection of reference data follows.
O=C(c1ccccc1)c1ccc2c(=O)cc(C(=O)O)[nH]c2c1
inactive
O=C(O)c1cc(=O)c2ccc(Sc3ccccc3)cc2[nH]1
inactive
COC(=O)c1cc(=O)c2cccc(Sc3ccccc3)c2[nH]1
inactive
Cc1ccc(C(=O)c2cccc3c(=O)cc(C(=O)O)[nH]c23)cc1
inactive

# input compound: CC(=O)c1cccc2c(=O)cc(C(=O)O)[nH]c12 ; wanted: its inhibition
inactive

Now the same for COC(=O)c1cc(=O)c2cc(S(=O)(=O)c3ccccc3)ccc2[nH]1
inactive

Now the same for O=C(O)c1cc(=O)c2cc(Sc3ccccc3)ccc2[nH]1
inactive

Now the same for O=C(O)c1cc(=O)c2cc([S+]([O-])c3ccccc3)ccc2[nH]1 (configuration not stated)
inactive

Now the same for O=C(O)c1cc(=O)c2cccc(S(=O)(=O)c3ccccc3)c2[nH]1
inactive

Now the same for O=C(O)c1cc(=O)c2ccc(S(=O)(=O)c3ccccc3)cc2[nH]1
inactive

Now the same for COC(=O)c1cc(=O)c2cc(Sc3ccccc3)ccc2[nH]1
inactive

Now the same for CC(=O)c1ccc2c(O)cc(C(=O)O)nc2c1
inactive

Now the same for CC(=O)c1ccc2[nH]c(C(=O)O)cc(=O)c2c1
inactive

Now the same for O=C(O)c1cc(=O)c2cccc(Sc3ccccc3)c2[nH]1
inactive

Now the same for COC(=O)c1cc(=O)c2cccc(C(=O)c3ccc(C)cc3)c2[nH]1
inactive

Now the same for COC(=O)c1cc(=O)c2ccc3c(c2[nH]1)C(=O)c1ccccc1-3
inactive

Now the same for COC(=O)c1cc(=O)c2cccc(C(=O)c3ccccc3)c2[nH]1
inactive

Data origin: ChEMBL document CHEMBL3244192
